Experiment: HT29 colon tumor cell growth inhibition, primary screen, imaging, high content imaging, 72 h, CellTiter-Glo (AID 772)
Conditions: HCS imaging cell count, measured here: ATP CellTiter-Glo viability, at 10 µM, stronger effect = higher value
Among all 3,300 compounds or so, about 20 (0.6%) were called active. The entries come from a sample that favours actives as a whole.
For each of the compounds below, state its growth inhibition.
Answers are plain numbers, in %.

For the compound Cc1nn2c(-c3ccc(Cl)cc3)nnc2s1 , report growth inhibition. -46.2

Please look at the items below and tell me growth inhibition for each one, in order.
1. CC1(C(=O)CSc2n[nH]c(-c3ccccc3Cl)n2)CCC(=O)O1 (stereo not given)
2. C=CCOC(=O)C(C#N)c1nc2ccccc2nc1N1CCN(c2ccccc2OCC)CC1 (stereo not given)
3. Cc1ccc(-c2nnc(-c3cccc(Br)c3)o2)cc1
4. CC(C)CCNc1nc2c(cc1C#N)COC(C)(C)C2
5. N#Cc1c(N)nc(SCc2ccccn2)c(C#N)c1-c1cccs1
6. COc1ccc(CSc2nnc3n(C)c(=O)c4c5c(sc4n23)CCCC5)cc1
7. N#Cc1c(N)nc(SCC(=O)NCCc2ccccc2)c(C#N)c1-c1cccs1
8. CCC(NC(=O)Nc1cc(OC)c(OC)c(OC)c1)(C(F)(F)F)C(F)(F)F

-34.5
-23.8
-5.25
2.37
42.6
-39.3
4.22
-14.6

Respectfully, I request growth inhibition for each entry included below.
1. CCCCSc1nc(N)c(C#N)c(-c2cccs2)c1C#N
2. Cc1cc(=O)oc(C)c1C(=O)NCCNC(=O)c1c(C)cc(=O)oc1C
3. CCN(CC)CCN1C(=O)C(O)=C(C(=O)c2cccs2)C1c1ccccn1 (stereo not given)
4. Cc1[nH]c2ccc(F)cc2c(=O)c1SC(F)(F)C(F)C(F)(F)F (stereo not given)
5. CCOC(=O)CNS(=O)(=O)c1cc(-c2n[nH]c(=O)c3ccccc23)ccc1C

[86.1, -5.21, -45.7, -57.2, -21.1]

I'm hoping you can list growth inhibition for every compound here, please.
1. Cc1nc(/N=C(\N)Nc2ccccc2)nc2ccccc12
2. Cc1nc(Sc2cccn2C)c(C(F)(F)F)c(=O)[nH]1
3. Cc1c(C(=O)O)sc(=S)n1-c1ccccc1
4. Cc1cccc(-n2ncc3c(NCc4ccco4)ncnc32)c1
5. Cc1cc2c(c(=O)n1CC1CCCO1)C(c1ccc3c(c1)OCO3)C(C#N)=C(N)O2 (stereo not given)
6. Cc1ccccc1C(=O)c1ccc2c(c1)n(C)c(=O)n2C

1: -11.8; 2: -42.6; 3: 9.56; 4: 83.6; 5: -39; 6: -7.19
